biological target: African green monkey C5 (African green monkey); assay: cell-based or functional assay
Listing of entries alongside the reported IC50, inhibition of CDC of Daudi cells, 1.66% African Green monkey serum.
Field format: number, assumed nM, no unit text.

Enquiry: Requested field: IC50, inhibition of CDC of Daudi cells, 1.66% African Green monkey serum. Item: H4H12171P (antibody, human IgG4, V domains shown, H4H: human IgG4 Fc with S108P hinge mutation) VH: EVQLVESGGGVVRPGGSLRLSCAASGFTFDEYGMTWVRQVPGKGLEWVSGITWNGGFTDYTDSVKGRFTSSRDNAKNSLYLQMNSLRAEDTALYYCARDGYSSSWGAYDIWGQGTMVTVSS VL: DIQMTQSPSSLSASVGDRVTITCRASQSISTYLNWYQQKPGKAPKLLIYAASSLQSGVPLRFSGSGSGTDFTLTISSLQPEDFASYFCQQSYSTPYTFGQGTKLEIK
Return: 3.3

Enquiry: What IC50, inhibition of CDC of Daudi cells, 1.66% African Green monkey serum value was documented for this binder, H4H12169P (antibody, human IgG4, V domains shown, H4H: human IgG4 Fc with S108P hinge mutation) VH: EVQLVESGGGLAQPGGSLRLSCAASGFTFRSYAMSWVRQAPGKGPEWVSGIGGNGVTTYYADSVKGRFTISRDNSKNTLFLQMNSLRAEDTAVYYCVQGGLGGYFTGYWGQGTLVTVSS VL: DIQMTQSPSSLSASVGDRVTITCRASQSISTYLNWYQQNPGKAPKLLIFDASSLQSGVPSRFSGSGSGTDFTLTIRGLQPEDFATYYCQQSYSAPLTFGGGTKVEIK ?
Return: 2.9

Enquiry: Recorded IC50, inhibition of CDC of Daudi cells, 1.66% African Green monkey serum for H4H12175P (antibody, human IgG4, V domains shown, H4H: human IgG4 Fc with S108P hinge mutation) VH: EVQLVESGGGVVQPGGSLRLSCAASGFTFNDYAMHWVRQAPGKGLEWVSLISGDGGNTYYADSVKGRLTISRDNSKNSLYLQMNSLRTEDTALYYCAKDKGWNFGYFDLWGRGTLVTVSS VL: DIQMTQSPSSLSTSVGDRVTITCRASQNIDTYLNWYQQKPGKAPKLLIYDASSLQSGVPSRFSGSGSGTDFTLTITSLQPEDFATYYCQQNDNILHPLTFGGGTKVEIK , please?
Return: 5.2
